tested on: Klebsiella pneumoniae; assay: Antibacterial activity against ceftazidime-nonsusceptible Klebsiella pneumoniae assessed as resistant isolates by CLSI M7-A7 broth microdilution method; type: functional
Measured Quantity: Activity (%)
Give bare numbers, in %.

Illustrative cases are given below, each with its answer.
# Compound, Activity / %
measured = [
    ("CC(C)(O/N=C(\\C(=O)N[C@@H]1C(=O)N2C(C(=O)[O-])=C(C[n+]3ccccc3)CS[C@H]12)c1csc(N)n1)C(=O)O", 98.5),
    ("CCN1CCN(C(=O)N[C@@H](C(=O)N[C@@H]2C(=O)N3[C@@H]2SC(C)(C)[C@@H]3C(=O)O)c2ccccc2)C(=O)C1=O", 62.1),
    ("CO/N=C(\\C(=O)N[C@@H]1C(=O)N2C(C(=O)O)=C(CSc3nc(=O)c(O)nn3C)CS[C@H]12)c1csc(N)n1", 0),
    ("C[C@H]1COc2c(N3CCN(C)CC3)c(F)cc3c(=O)c(C(=O)O)cn1c23.C[C@H]1COc2c(N3CCN(C)CC3)c(F)cc3c(=O)c(C(=O)O)cn1c23.O", 54.5),
    ("C[C@@H](O)[C@H]1C(=O)N2C(C(=O)O)=C(SCCNC=N)C[C@H]12 [IMIPENEM ANHYDROUS]", 10.6),
]

Continue with the compound presented below.
Tell me the measured Activity of CC1(C)S[C@@H]2[C@H](NC(=O)[C@H](N)c3ccccc3)C(=O)N2[C@H]1C(=O)O , please.
100

* * *

test system: Streptococcus pyogenes; test: Antibacterial activity against erythromycin-nonsusceptible Streptococcus pyogenes by CLSI M7-A7 broth microdilution method; assay type: functional
For each entry below, report its MIC90 value.
Answers are plain numbers, in µg/mL.

// below: answered compounds
# Smiles Notation, Test System, MIC90 / µg/mL
records = [
    ("CN[C@H](CC(C)C)C(=O)N[C@H]1C(=O)N[C@@H](CC(N)=O)C(=O)N[C@H]2C(=O)N[C@H]3C(=O)N[C@H](C(=O)N[C@H](C(=O)O)c4cc(O)cc(O)c4-c4cc3ccc4O)[C@H](O)c3ccc(c(Cl)c3)Oc3cc2cc(c3O[C@@H]2O[C@H](CO)[C@@H](O)[C@H](O)[C@H]2O[C@H]2C[C@](C)(N)[C@H](O)[C@H](C)O2)Oc2ccc(cc2Cl)[C@H]1O", "Streptococcus pyogenes", 0.5),
    ("C[C@H]1COc2c(N3CCN(C)CC3)c(F)cc3c(=O)c(C(=O)O)cn1c23.C[C@H]1COc2c(N3CCN(C)CC3)c(F)cc3c(=O)c(C(=O)O)cn1c23.O", "Streptococcus pyogenes", 1),
    ("CC(=O)NC[C@H]1CN(c2ccc(N3CCOCC3)c(F)c2)C(=O)O1", "Streptococcus pyogenes", 1),
    ("CO/N=C(\\C(=O)N[C@@H]1C(=O)N2C(C(=O)O)=C(CSc3nc(=O)c(O)nn3C)CS[C@H]12)c1csc(N)n1", "Streptococcus pyogenes", 0.12),
    ("CCO/N=C(\\C(=O)N[C@@H]1C(=O)N2C(C(=O)[O-])=C(Sc3nc(-c4cc[n+](C)cc4)cs3)CS[C@H]12)c1nsc(NP(=O)(O)O)n1", "Streptococcus pyogenes", 0.015),
]

Shifting focus to the compound that follows.
State its MIC90 on Streptococcus pyogenes: CCCCCCCCCC(=O)N[C@@H](Cc1c[nH]c2ccccc12)C(=O)N[C@H](CC(N)=O)C(=O)N[C@@H](CC(=O)O)C(=O)N[C@@H]1C(=O)NCC(=O)N[C@@H](CCCN)C(=O)N[C@@H](CC(=O)O)C(=O)N[C@H](C)C(=O)N[C@@H](CC(=O)O)C(=O)NCC(=O)N[C@H](CO)C(=O)N[C@@H]([C@H](C)CC(=O)O)C(=O)N[C@@H](CC(=O)c2ccccc2N)C(=O)O[C@@H]1C
0.25

* * *

What MIC50 was measured for each of the following?
tested on: Morganella morganii; assay: Antibacterial activity against ceftazidime-susceptible Morganella morganii by CLSI M7-A7 broth microdilution method; format: functional
Answers are plain numbers, in µg/mL.

// worked examples, MIC50 included
# Compound, Quantity Unit, Observed
records = [
    ("C[C@@H](O)[C@H]1C(=O)N2C(C(=O)O)=C(SCCNC=N)C[C@H]12 [IMIPENEM ANHYDROUS]", "µg/mL", 2),
    ("CC(C)(O/N=C(\\C(=O)N[C@@H]1C(=O)N2C(C(=O)[O-])=C(C[n+]3ccccc3)CS[C@H]12)c1csc(N)n1)C(=O)O [CEFTAZIDIME]", "µg/mL", 0.06),
]

Alright, here's another compound for you.
Report MIC50 for CCO/N=C(\C(=O)N[C@@H]1C(=O)N2C(C(=O)[O-])=C(Sc3nc(-c4cc[n+](C)cc4)cs3)CS[C@H]12)c1nsc(NP(=O)(O)O)n1 [CEFTAROLINE FOSAMIL] please.
0.06

* * *

system: Acinetobacter; assay: Antibacterial activity against imipenem-susceptible Acinetobacter assessed as resistant isolates by CLSI M7-A7 broth microdilution method; format: functional
Measured Quantity: Activity (%)
Give bare numbers, in %.

Reference set (4 entries):
# Molecule, Quantity Unit, Activity
records = [
    ("C[C@H]1COc2c(N3CCN(C)CC3)c(F)cc3c(=O)c(C(=O)O)cn1c23.C[C@H]1COc2c(N3CCN(C)CC3)c(F)cc3c(=O)c(C(=O)O)cn1c23.O", "%", 36.2),
    ("CC(C)(O/N=C(\\C(=O)N[C@@H]1C(=O)N2C(C(=O)[O-])=C(C[n+]3ccccc3)CS[C@H]12)c1csc(N)n1)C(=O)O", "%", 31.9),
    ("CO/N=C(\\C(=O)N[C@@H]1C(=O)N2C(C(=O)O)=C(CSc3nc(=O)c(O)nn3C)CS[C@H]12)c1csc(N)n1", "%", 0),
    ("CCN1CCN(C(=O)N[C@@H](C(=O)N[C@@H]2C(=O)N3[C@@H]2SC(C)(C)[C@@H]3C(=O)O)c2ccccc2)C(=O)C1=O", "%", 21.3),
]

Below: the item to evaluate.
API: value(readout=Activity, system=Acinetobacter) for record C[C@@H](O)[C@H]1C(=O)N2C(C(=O)O)=C(SCCNC=N)C[C@H]12 [IMIPENEM ANHYDROUS]
0

* * *

system: Klebsiella pneumoniae; test: Antibacterial activity against ceftazidime-nonsusceptible Klebsiella pneumoniae assessed as susceptible isolates by CLSI M7-A7 broth microdilution method; assay type: functional
Measured Quantity: Activity (%)
Numbers only, in %.

Example cases with answers are listed next.
# Compound, Activity, %
records = [
    ("C[C@@H](O)[C@H]1C(=O)N2C(C(=O)O)=C(SCCNC=N)C[C@H]12 [IMIPENEM ANHYDROUS]", 80.3),
    ("CO/N=C(\\C(=O)N[C@@H]1C(=O)N2C(C(=O)O)=C(CSc3nc(=O)c(O)nn3C)CS[C@H]12)c1csc(N)n1 [CEFTRIAXONE]", 12.1),
    ("CCN1CCN(C(=O)N[C@@H](C(=O)N[C@@H]2C(=O)N3[C@@H]2SC(C)(C)[C@@H]3C(=O)O)c2ccccc2)C(=O)C1=O [PIPERACILLIN]", 24.2),
    ("C[C@H]1COc2c(N3CCN(C)CC3)c(F)cc3c(=O)c(C(=O)O)cn1c23.C[C@H]1COc2c(N3CCN(C)CC3)c(F)cc3c(=O)c(C(=O)O)cn1c23.O [LEVOFLOXACIN]", 37.9),
    ("CC(C)(O/N=C(\\C(=O)N[C@@H]1C(=O)N2C(C(=O)[O-])=C(C[n+]3ccccc3)CS[C@H]12)c1csc(N)n1)C(=O)O [CEFTAZIDIME]", 0),
]

Now look at this one.
GET /values?readout=Activity&item= CC1(C)S[C@@H]2[C@H](NC(=O)[C@H](N)c3ccccc3)C(=O)N2[C@H]1C(=O)O [AMPICILLIN]
0

* * *

Provide the reported MIC50 of each item.
test system: Streptococcus agalactiae; assay: Antibacterial activity against erythromycin-nonsusceptible Streptococcus agalactiae by CLSI M7-A7 broth microdilution method; type: functional

# Smiles Notation, MIC50
data = [
    ("CN[C@H](CC(C)C)C(=O)N[C@H]1C(=O)N[C@@H](CC(N)=O)C(=O)N[C@H]2C(=O)N[C@H]3C(=O)N[C@H](C(=O)N[C@H](C(=O)O)c4cc(O)cc(O)c4-c4cc3ccc4O)[C@H](O)c3ccc(c(Cl)c3)Oc3cc2cc(c3O[C@@H]2O[C@H](CO)[C@@H](O)[C@H](O)[C@H]2O[C@H]2C[C@](C)(N)[C@H](O)[C@H](C)O2)Oc2ccc(cc2Cl)[C@H]1O", "0.5 µg/mL"),
]

Please give MIC50 for each item listed below.
1. CC(C)(O/N=C(\C(=O)N[C@@H]1C(=O)N2C(C(=O)[O-])=C(C[n+]3ccccc3)CS[C@H]12)c1csc(N)n1)C(=O)O
2. CCO/N=C(\C(=O)N[C@@H]1C(=O)N2C(C(=O)[O-])=C(Sc3nc(-c4cc[n+](C)cc4)cs3)CS[C@H]12)c1nsc(NP(=O)(O)O)n1

1. ≤ 1 µg/mL
2. 0.015 µg/mL

Which measured MIC50 belongs to CO/N=C(\C(=O)N[C@@H]1C(=O)N2C(C(=O)O)=C(CSc3nc(=O)c(O)nn3C)CS[C@H]12)c1csc(N)n1 , tested on Streptococcus agalactiae?
0.06 µg/mL

Numbers sourced from ChEMBL document CHEMBL1671626.
